Test system: HT29 colon
Assay: NCI-60 one-dose screen, 48 h (100 = growth as untreated, 0 = no growth, -100 = all killed)
Conditions: 10 µM unless noted
Procedure: Growth inhibition of the HT29 human tumor cell line is measured as a screen for anti-cancer activity. Cells are grown in 96 well plates and exposed to the test compound for 48 hours. Compounds are tested at a single concentration, which is 10^-5 M for most compounds. The reported endpoint is percent growth (GI% or GIPRCNT), where numbers from 0 - 100% represent growth inhibition, and numbers from -100% - 0 represent cell death. For example, a value of 40 represents 60% growth inhibition. […]
This is part of a sample that, as a whole, favours compounds with a hit. Of some 83,000 tested, about 20% had one in any assay.
Assign labels as follows, please: met for growth below 90%; not met for growth equal to or exceeding 90%.

>>> df
                            smiles_notation  class_name
0  C=C1C(=O)O[C@H]2[C@H]1CC/C(CNC(=O)/C1=C/CC[C@@]3(C)O[C@H]3[C@H]3OC(=O)C(=C)[C@@H]3CC1)=C\CC[C@@]1(C)O[C@@H]21     not met
1      Nc1nc(Cl)cc(NCCCCNc2cc(Cl)nc(N)n2)n1     not met
2                           CC(=S)Nc1ccccc1     not met
3  O=C(NCCNc1nccc(-c2c(-c3cccc(O)c3)nc3sccn23)n1)c1ccccc1O         met

With those in mind, consider the next compound.
Exercise: Hello, I'm reviewing records and need to know if growth of "Cc1cc(NC(=O)c2cccc(C(F)(F)F)c2)ccc1-n1ccc2c(NC(=O)c3ccccc3)nccc21" is below 90%. Could you check?
Key: not met
